biological target: CDK6/Cyclin D3 (Homo sapiens, UniProt Q00534); conditions: 12-point dose response, singlicate, at Km for ATP
Sequence (Q00534 whole entry): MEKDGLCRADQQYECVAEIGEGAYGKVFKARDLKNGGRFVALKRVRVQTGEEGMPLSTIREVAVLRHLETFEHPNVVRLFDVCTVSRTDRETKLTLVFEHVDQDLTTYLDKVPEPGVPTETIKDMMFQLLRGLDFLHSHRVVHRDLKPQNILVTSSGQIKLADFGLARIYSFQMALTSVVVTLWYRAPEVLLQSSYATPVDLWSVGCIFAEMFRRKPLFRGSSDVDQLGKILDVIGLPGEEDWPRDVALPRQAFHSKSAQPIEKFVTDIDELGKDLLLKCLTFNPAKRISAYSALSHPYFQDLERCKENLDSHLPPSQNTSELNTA
Sequence (P30281 whole entry partner): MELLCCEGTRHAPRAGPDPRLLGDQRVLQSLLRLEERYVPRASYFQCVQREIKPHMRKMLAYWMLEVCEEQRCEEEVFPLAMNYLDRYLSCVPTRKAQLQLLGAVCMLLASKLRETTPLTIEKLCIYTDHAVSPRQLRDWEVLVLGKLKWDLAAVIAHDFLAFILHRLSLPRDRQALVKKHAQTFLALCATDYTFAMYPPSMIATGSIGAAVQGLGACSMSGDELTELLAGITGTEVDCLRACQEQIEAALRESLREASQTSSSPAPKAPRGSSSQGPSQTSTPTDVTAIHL
observed property: IC50 (nM)
Write the value in nM as a bare number.

**Query** Determine its reported IC50: CC(C)N1CCN(c2ccc(Nc3ncc4cc5n(c4n3)C3(CCCCC3)CNC5=O)nc2)CC1.Cl.Cl
**Result** 2
